Values from ChEMBL document CHEMBL3526130

assay: Unbound fraction in cynomolgus monkey plasma at 0.1 mg/kg, sc by LC-MS/MS analysis; format: ADME, organism-based, Macaca fascicularis; design: dose 0.1 mg/kg, route subcutaneous
ENDPOINT: fraction unbound

# fraction unbound (molecule: CC(C)S(=O)(=O)N[C@H]1CCOC[C@@H]1c1ccc(-c2ccc(C#N)s2)cc1 ) is 0.0876

Continue with the next molecule.
Recorded fraction unbound (molecule Cc1nc2n(c(=O)c1CCN1CCC(c3noc4cc(F)ccc34)CC1)CCCC2 [RISPERIDONE] ): 0.084

----------
test: AUC(0 to 2 hrs) in Beagle dog cerebrospinal fluid treated with risperidone at 0.1 mg/kg, sc by LC-MS/MS analysis; assay type: ADME, organism-based, Canis lupus familiaris; parameters: time < 2 hr, dose 0.1 mg/kg, route subcutaneous
ENDPOINT: AUC(0-t) at 2 h (ng·h/mL)
I only need the number, in ng·h/mL, no unit after it.

According to the records, this molecule Cc1nc2n(c(=O)c1CCN1CCC(c3noc4cc(F)ccc34)CC1)CCCC2O (stereo unspecified) [PALIPERIDONE] displays AUC(0-t) at 2 h of 6.27

----------
experiment: AUC(0 to 1 hr) in cynomolgus monkey plasma treated with risperidone at 0.1 mg/kg, sc by LC-MS/MS analysis; format: ADME, organism-based, Macaca fascicularis; design: time < 1 hr, dose 0.1 mg/kg, route subcutaneous
ENDPOINT: AUC(0-t) at 1 h (ng·h/mL)
Provide the reading as a plain figure in ng·h/mL.

Consider Cc1nc2n(c(=O)c1CCN1CCC(c3noc4cc(F)ccc34)CC1)CCCC2O (stereo unspecified) [PALIPERIDONE] . Its measured AUC(0-t) at 1 h is 76

----------
experiment: Ratio of unbound drug level in brain to plasma in Beagle dog at 1 mg/kg, sc by LC-MS/MS analysis; assay type: ADME, organism-based, Canis lupus familiaris; parameters: dose 1 mg/kg, route subcutaneous; conditions: brain and plasma
ENDPOINT: Kp uu
In your answer, state the number alone without any accompanying words.

The molecule CNCc1cc(F)c(Cl)cc1Oc1cccc(OC)c1C showed Kp uu equal to 4.61

----------
assay: AUC(0 to infinity) in Sprague-Dawley rat brain at 3.2 mg/kg, sc by LC-MS/MS analysis; assay type: ADME, organism-based; set-up: time infinity, dose 3.2 mg/kg, route subcutaneous
ENDPOINT: AUC(0-inf) (ng·h/mL)
A number alone suffices; assume ng·h/mL.

Form field AUC(0-inf), entry CNCc1cc(F)c(Cl)cc1Oc1cccc(OC)c1C : 5570

----------
assay: AUC(0 to 1 hr) in cynomolgus monkey cerebrospinal fluid treated with risperidone at 0.1 mg/kg, sc by LC-MS/MS analysis; assay type: ADME, organism-based, Macaca fascicularis; parameters: time < 1 hr, dose 0.1 mg/kg, route subcutaneous
ENDPOINT: AUC(0-t) at 1 h
Include the unit after the number when you answer.

Notebook: Cc1nc2n(c(=O)c1CCN1CCC(c3noc4cc(F)ccc34)CC1)CCCC2O (stereo unspecified) , AUC(0-t) at 1 h read as 2.54 ng·h/mL

----------
test: AUC(0 to 2 hrs) in Sprague-Dawley rat plasma at 2 mg/kg, sc by LC-MS/MS analysis; type: ADME, organism-based; design: time < 2 hr, dose 2 mg/kg, route subcutaneous
ENDPOINT: AUC(0-t) at 2 h (ng·h/mL)
Give just the number in ng·h/mL; leave the unit off.

Please fill in: AUC(0-t) at 2 h reported for Clc1ccc2c(c1)N=C(N1CCNCC1)c1ccccc1N2 [N-DESMETHYLCLOZAPINE] = 346

----------
assay: Ratio of drug level in brain to plasma in Sprague-Dawley rat at 2 mg/kg, sc by LC-MS/MS analysis; assay type: ADME, organism-based; design: dose 2 mg/kg, route subcutaneous; details: read-out: BPR
ENDPOINT: Kp

Noted for Clc1ccc2c(c1)N=C(N1CCNCC1)c1ccccc1N2 [N-DESMETHYLCLOZAPINE] : its Kp reads 0.64

----------
assay: Ratio of drug level in brain to plasma in Beagle dog at 0.1 mg/kg, sc by LC-MS/MS analysis; format: ADME, organism-based, Canis lupus familiaris; parameters: dose 0.1 mg/kg, route subcutaneous; conditions: brain and plasma, read-out: BPR
ENDPOINT: Kp
// print number alone

Documented Kp of Cc1nc2n(c(=O)c1CCN1CCC(c3noc4cc(F)ccc34)CC1)CCCC2 [RISPERIDONE] : 1.01

----------
experiment: AUC(0 to 7 hrs) in Sprague-Dawley rat brain at 0.2 mg/kg, sc by LC-MS/MS analysis; format: ADME, organism-based; set-up: time < 7 hr, dose 0.2 mg/kg, route subcutaneous
ENDPOINT: AUC(0-t) at 7 h (ng·h/mL)
Please respond with the number in ng·h/mL and leave the unit unwritten.

AUC(0-t) at 7 h reading for CCCC(C)C1(CC)C(=O)NC(=S)NC1=O (stereo unspecified) : 209

----------
assay: AUC(0 to 2 hrs) in Sprague-Dawley rat plasma at 1 mg/kg, sc by LC-MS/MS analysis; assay type: ADME, organism-based; set-up: time < 2 hr, dose 1 mg/kg, route subcutaneous
ENDPOINT: AUC(0-t) at 2 h (µg·h/mL)
Numeric only. Scale: µg·h/mL

For record CC(C)S(=O)(=O)N[C@H]1CCOC[C@@H]1c1ccc(-c2ccc(C#N)s2)cc1 the listed AUC(0-t) at 2 h is 0.122

Continuing:
Summary for this compound, Cc1nc2n(c(=O)c1CCN1CCC(c3noc4cc(F)ccc34)CC1)CCCC2 [RISPERIDONE] : AUC(0-t) at 2 h is 0.409

----------
experiment: AUC(0 to 2 hrs) in Sprague-Dawley rat plasma treated with risperidone at 1 mg/kg, sc by LC-MS/MS analysis; type: ADME, organism-based; set-up: time < 2 hr, dose 1 mg/kg, route subcutaneous
ENDPOINT: AUC(0-t) at 2 h (ng·h/mL)
// note: answer is a bare numeric in ng·h/mL

The compound listed as Cc1nc2n(c(=O)c1CCN1CCC(c3noc4cc(F)ccc34)CC1)CCCC2O (stereo unspecified) has a reported AUC(0-t) at 2 h of 184

----------
test: Unbound fraction in Beagle dog brain at 1 mg/kg, sc by LC-MS/MS analysis; format: ADME, organism-based, Canis lupus familiaris; parameters: dose 1 mg/kg, route subcutaneous
ENDPOINT: fraction unbound
// no unit, no text: just the number

Per the record, CNCc1cc(F)c(Cl)cc1Oc1cccc(OC)c1C has fraction unbound of 0.00443

----------
test: AUC(0 to 7 hrs) in Sprague-Dawley rat brain at 3 mg/kg, sc by LC-MS/MS analysis; assay type: ADME, organism-based; parameters: time < 7 hr, dose 3 mg/kg, route subcutaneous
ENDPOINT: AUC(0-t) at 7 h (ng·h/mL)
Respond numerically; units are ng·h/mL and should not be typed.

Take a look at these entries with their results.
Form field AUC(0-t) at 7 h, entry Nc1nc(O)c2ncn(COC(CO)CO)c2n1 : 170

The recorded AUC(0-t) at 7 h for entry CCN(CC)CCNC(=O)c1cc(Cl)c(N)cc1OC [METOCLOPRAMIDE] equals 629

Continuing:
Just so you know, measured AUC(0-t) at 7 h for NC(=O)N1c2ccccc2C=Cc2ccccc21 [CARBAMAZEPINE] came out at 2540

----------
assay: AUC(0 to 7 hrs) in Sprague-Dawley rat cerebrospinal fluid at 35 mg/kg, sc by LC-MS/MS analysis; assay type: ADME, organism-based; design: time < 7 hr, dose 35 mg/kg, route subcutaneous
ENDPOINT: AUC(0-t) at 7 h
Note: state the figure and append the unit.

Record C=C[C@H]1C[N@@]2CC[C@H]1C[C@@H]2[C@@H](O)c1ccnc2ccc(OC)cc12 [QUINIDINE] , field AUC(0-t) at 7 h: 302 ng·h/mL

----------
assay: AUC(0 to 2 hrs) in Sprague-Dawley rat cerebrospinal fluid at 1 mg/kg, sc by LC-MS/MS analysis; assay type: ADME, organism-based; design: time < 2 hr, dose 1 mg/kg, route subcutaneous
ENDPOINT: AUC(0-t) at 2 h (ng·h/mL)
Dear colleague, please return just the value in ng·h/mL, with no unit written.

Reported AUC(0-t) at 2 h of Cc1nc2n(c(=O)c1CCN1CCC(c3noc4cc(F)ccc34)CC1)CCCC2 : 11.3

---
Measured AUC(0-t) at 2 h, CC(C)S(=O)(=O)N[C@H]1CCOC[C@@H]1c1ccc(-c2ccc(C#N)s2)cc1 : 3.46

----------
assay: AUC(0 to infinity) in Sprague-Dawley rat plasma at 10 mg/kg, sc by LC-MS/MS analysis; assay type: ADME, organism-based; set-up: dose 10 mg/kg, route subcutaneous, time infinity
ENDPOINT: AUC(0-inf) (ng·h/mL)
Field: numeric (ng·h/mL). Do not append units.

Form: molecule = CN(C)CCCC1(c2ccc(F)cc2)OCc2cc(C#N)ccc21 (racemic) ; AUC(0-inf) = 958
